Catalogue of protein stability index readings, one per entry.
Experiment: protein stability index of a GFP-peptide fusion (GPS, HEK-293T) (PSI 1-6); higher = more stable;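 further: 24-mer peptide tiles fused after GFP, lentivirally expressed, FACS-sorted into six equal bins by GFP/DsRed ratio, decoded by Illumina sequencing, PSI is the read-weighted mean bin number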
Conditions: treatment: MLN4924 1 uM, 8 h; c terminus: a fixed tail appended

Worked cases, protein stability index given:
- RLCFFPFVENGHSESSGQTHLEGD [CFHR2]: 4.37
- IQSRVQELHPESGEEAVTLVEDMQ [ZNF263]: 5.44
- LQLEACGMRRKSLLTRKVICKSDA [GOLPH3]: 3.07
- LCAIAGVLTIALPVPVIVSNFNYF [KCNA1]: 3.04
- NELDSGFRLLNLKNDSLRKRYDGL [TSN]: 3.43
- AIIGWLLTTCTSNVAASNAKLALF [INTS3]: 3

Please look at the following sequence next.
I would be grateful if you could share the reported protein stability index for DAAVVRPGFLSTAEEETLSRELEP [ALKBH7] .
5.42
